- target_or_system: CDK2/cyclin E (Homo sapiens (Human), UniProt P24941)
- experiment: Kinase assay CDK2/cyclin E
- Format: biochemical
- stated_conditions: ratio to roscovitine
property_measured: B: IC50 CDK2 roscovitine/IC50 CDK2 compound

In [3]: df
Out[3]:
                                   compound  quantitative_readout
0  CCC(O)[C@H](CC)Nc1nc(NCc2cccnc2)c2ncn(C(C)C)c2n1 (mixture of isomers)                   1.0
1  CC[C@H](Nc1nc(NCc2cccnc2)c2ncn(C(C)C)c2n1)C(O)C(C)(C)C (mixture of isomers)                   0.3
2  CC[C@H](Nc1nc(NCc2cccnc2)c2ncn(C(C)C)c2n1)C(C)(C)O                   1.4
3  CC[C@@H](Nc1nc(NCc2cccnc2)c2ncn(C(C)C)c2n1)C(C)(C)O                   0.5
4  CCC(O)[C@@H](CC)Nc1nc(NCc2cccnc2)c2ncn(C(C)C)c2n1 (mixture of isomers)                   0.5
